Recorded values, source patent US12122761B2.

molecular target: human cloned CHRM2 receptor (M2_CHO cells) (Homo sapiens); construct: expressed in transfected cells; host or cells: CHO-K1; experiment: CHRM2 Ca++ Flux Assay (agonist mode, FDSS 7000EX); type: cell-based; settings: Percent Activity measured to EC100 of Carbachol; read-out: M2 FDSS PA
Sequence (P08172 whole entry): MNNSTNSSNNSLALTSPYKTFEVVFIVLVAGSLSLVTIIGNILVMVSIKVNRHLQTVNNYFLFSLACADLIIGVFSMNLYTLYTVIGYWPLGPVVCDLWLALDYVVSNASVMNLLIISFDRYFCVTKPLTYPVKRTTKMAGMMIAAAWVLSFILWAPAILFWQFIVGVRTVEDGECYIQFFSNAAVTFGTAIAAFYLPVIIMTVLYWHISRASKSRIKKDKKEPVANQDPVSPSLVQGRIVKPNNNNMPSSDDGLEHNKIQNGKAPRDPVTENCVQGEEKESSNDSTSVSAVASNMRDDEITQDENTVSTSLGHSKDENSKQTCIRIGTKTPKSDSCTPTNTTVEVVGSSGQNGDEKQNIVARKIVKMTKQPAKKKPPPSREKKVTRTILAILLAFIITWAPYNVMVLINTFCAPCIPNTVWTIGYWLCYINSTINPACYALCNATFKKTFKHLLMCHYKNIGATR
Each item that follows carries a reported Emax.
Use % as the unit, but write only the number.

Sample answers from the record:
Cc1ncncc1N1CC2(CC[C@@H](N3CCC(c4ccccc4OCC(C)(C)O)CC3)C2)C1 : 0
c1ccc(C2CCN([C@@H]3CCC4(C3)CN(c3nnco3)C4)CC2)c(CC2CCOCC2)c1 : 0
c1ccc(C2CCN([C@@H]3CCC4(C3)CN(c3cncnc3)C4)CC2)c(C2CCOCC2)c1 : 13

Short answer on human cloned CHRM2 receptor (M2_CHO cells) (Homo sapiens) for "COc1ccc(F)cc1C1CCN([C@@H]2CCC3(C2)CN(C(=O)C2COC2)C3)CC1" , Emax: 10

Short answer on human cloned CHRM2 receptor (M2_CHO cells) (Homo sapiens) for "N#CCCOc1ccccc1C1CCN([C@@H]2CCC3(C2)CN(C(=O)C2COC2)C3)CC1" , Emax: 31

Short answer on human cloned CHRM2 receptor (M2_CHO cells) (Homo sapiens) for "c1ccc(C2CCN([C@@H]3CCC4(C3)CN(c3nncs3)C4)CC2)c(OCC2COC2)c1" , Emax: 38

###

Each item that follows carries a reported EC50.
target: human cloned CHRM4 receptor (M4_CHO cells) (Homo sapiens); construct: expressed in transfected cells; host or cells: CHO-K1; test: CHRM4 Ca++ Flux Assay (agonist mode, FDSS 7000EX); assay type: cell-based; details: geometric mean if tested more than once, read-out: M4 FDSS EC50

Sample answers from the record:
COc1ccccc1C1CCN([C@@H]2CCC3(C2)CN(c2ncon2)C3)CC1 : < 0.4 nM
c1ccc(C2CCN([C@@H]3CCC4(C3)CN(c3cncnc3)C4)CC2)c(OCC2COC2)c1 : < 0.4 nM

Kindly note the recorded EC50 for "c1ccc(C2CCN([C@@H]3CCC4(C3)CN(c3nnco3)C4)CC2)c(O[C@@H]2CCOC2)c1" , which is < 0.4 nM

###

biological target: human cloned CHRM4 receptor (M4_CHO cells) (Homo sapiens); construct: expressed in transfected cells; host or cells: CHO-K1; assay: CHRM4 Ca++ Flux Assay (agonist mode, FDSS 7000EX); format: cell-based; settings: geometric mean if tested more than once, read-out: M4 FDSS EC50
Each item that follows carries a reported EC50.

Sample answers from the record:
Fc1ccc(C2CCOCC2)c(C2CCN([C@@H]3CCC4(C3)CN(c3cncnc3)C4)CC2)c1 (single isomer, unassigned) [Example 10C] : < 0.4 nM
COc1ccccc1C1CCN([C@@H]2CCC3(C2)CN(c2cnc(C)nc2)C3)CC1 [Example 5E] : > 25000 nM

Now let's try a different one.
Kindly note the recorded EC50 for c1ccc(C2CCN([C@@H]3CCC4(C3)CN(c3nncs3)C4)CC2)c(OC2COC2)c1 [Example 3A] , which is < 0.4 nM

###

Each item that follows carries a reported M4 FDSS PA.
Biological target: human cloned CHRM4 receptor (M4_CHO cells) (Homo sapiens, UniProt P08173)
Construct: expressed in transfected cells; host or cells: CHO-K1
Sequence (P08173 1-479): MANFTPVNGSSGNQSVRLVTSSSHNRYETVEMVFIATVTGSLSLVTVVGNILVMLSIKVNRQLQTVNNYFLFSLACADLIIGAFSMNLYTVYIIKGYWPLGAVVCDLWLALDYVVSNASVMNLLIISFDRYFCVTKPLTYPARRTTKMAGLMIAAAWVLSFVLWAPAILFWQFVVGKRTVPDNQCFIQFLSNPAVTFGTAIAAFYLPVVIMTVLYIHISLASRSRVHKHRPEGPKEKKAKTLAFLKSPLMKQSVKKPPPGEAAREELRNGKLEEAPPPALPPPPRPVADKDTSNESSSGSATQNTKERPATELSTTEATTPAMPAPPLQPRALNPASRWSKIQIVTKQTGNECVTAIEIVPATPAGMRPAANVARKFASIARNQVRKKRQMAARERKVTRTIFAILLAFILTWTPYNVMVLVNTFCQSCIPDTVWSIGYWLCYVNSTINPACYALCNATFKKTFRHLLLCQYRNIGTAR
Experiment: CHRM4 Ca++ Flux Assay (agonist mode, FDSS 7000EX)
Format: cell-based
Conditions: Percent Activity
Use % as the unit, but write only the number.

O=C(N1CC2(CC[C@@H](N3CCC(c4ccccc4OC4CC5(COC5)C4)CC3)C2)C1)C1(F)CC1 (single isomer, unassigned) [Example 11D] : 38
O=C(N1CC2(CC[C@@H](N3CCC(c4ccccc4OCC4CC4)CC3)C2)C1)C1(F)CC1 (single isomer, unassigned) [Example 7T] : 5
COc1ccccc1C1CCN([C@H]2CCC3(C2)CN(c2ncco2)C3)CC1 (single isomer, unassigned) [Example 10I] : 17

Now let's try a different one.
Kindly note the recorded M4 FDSS PA for FC(F)(F)Oc1ccccc1C1CCN([C@@H]2CCC3(C2)CN(c2ncco2)C3)CC1 (single isomer, unassigned) [Example 10K] , which is 65
